This listing pairs compounds with measured Emax.
Biological target: M4 mAChR (Homo sapiens)
Construct: expressed in transfected cells; host or cells: CHO-K1
Sequence (P08173 whole entry): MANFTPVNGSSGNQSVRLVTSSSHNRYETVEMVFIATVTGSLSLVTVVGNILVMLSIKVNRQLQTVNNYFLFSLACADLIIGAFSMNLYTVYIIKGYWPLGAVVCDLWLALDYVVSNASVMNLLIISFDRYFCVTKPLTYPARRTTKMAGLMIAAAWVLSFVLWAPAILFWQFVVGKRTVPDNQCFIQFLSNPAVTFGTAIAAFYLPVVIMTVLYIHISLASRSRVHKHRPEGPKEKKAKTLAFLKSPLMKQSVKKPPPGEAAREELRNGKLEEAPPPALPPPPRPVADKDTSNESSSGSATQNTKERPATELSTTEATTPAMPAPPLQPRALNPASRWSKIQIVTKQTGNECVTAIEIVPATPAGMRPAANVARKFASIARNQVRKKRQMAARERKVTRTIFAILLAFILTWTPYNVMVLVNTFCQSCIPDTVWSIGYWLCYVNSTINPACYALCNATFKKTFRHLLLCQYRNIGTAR
Assay: cAMP TR-FRET assay with forskolin, M4-overexpressing CHO-K1 cells
Format: cell-based
Details: cAMP assay
Description: The M2 and M4 mACh receptors are Gi-coupled receptors which, upon activation, produce a decrease in cAMP. Assays were developed that measured the potency and efficacy of compounds at the M2 or M4 mAChR using M2- or M4-overexpressing CHO-K1 cell lines. […]

Worked cases, Emax given:
COMPOUND	Emax
CCOC(=O)N1CC2(CC[C@@H](N3CCN(c4cc(F)cnc4-c4ncc(F)cc4F)CC3)C2)C1 [Compound A240]	80 to 100%
CCOC(=O)N1CC2(CC[C@@H](N3CCN(c4cc(F)cnc4OC4CCOCC4)CC3)C2)C1 [Compound A229]	80 to 100%
CCOC(=O)N1CC2(CC[C@@H](N3CCN(c4cc(F)cnc4C4CCOC4)CC3)C2)C1 (single isomer, unassigned) [Compound A281]	80 to 100%
CCOC(=O)N1CC2(CC[C@@H](N3CCN(c4cc(Cl)cnc4-c4ccn(C)n4)CC3)C2)C1 [Compound A208]	50 to 79.9%
CCOC(=O)N1CC2(CC[C@@H](N3CCN(c4cc(F)cnc4-c4cccc5ncnn45)CC3)C2)C1 [Compound A178]	19 to 49.9%
CCOC(=O)N1CC2(CC[C@@H](N3CCN(c4cc(F)cnc4-c4cn(C)nc4C)CC3)C2)C1 [Compound A157]	80 to 100%

Request the reported Emax associated with CCOC(=O)N1CC2(CC[C@@H](N3CCN(c4cc(F)cnc4-c4cc(F)cc(CO)c4)CC3)C2)C1 [Compound A154]
80 to 100%

Endpoint output: Emax of CCOC(=O)N1CC2(CC[C@@H](N3CCN(c4cc(F)cnc4-c4cnn5c4OCCC5)CC3)C2)C1 [Compound A173] . Value?
50 to 79.9%

Recorded Emax for CCOC(=O)N1CC2(CC[C@@H](N3CCN(c4cc(Cl)cnc4-c4cnc(C)cn4)CC3)C2)C1 [Compound A239] , please?
80 to 100%
